These entries and their values trace back to paper PMC12416549.

apparent Kd (screen) by entry:
Target: T1, TNFR1 (Homo sapiens, UniProt P19438)
T1 chain: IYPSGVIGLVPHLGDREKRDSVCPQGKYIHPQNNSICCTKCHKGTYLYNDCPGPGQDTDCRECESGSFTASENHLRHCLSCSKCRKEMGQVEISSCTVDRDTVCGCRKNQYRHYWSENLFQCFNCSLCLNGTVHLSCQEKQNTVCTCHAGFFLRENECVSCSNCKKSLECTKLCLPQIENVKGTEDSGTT
Assay: yeast display SC50
READOUT: apparent Kd (screen) (nM)

binder="E7G (designed binder) SMEEEVGKAAKEYEKKKKEAIEKHLEKLKAKDKEAAERFLKELEEAAKEYAKDEAKTMSEEEAKRRAKKYKEKVLLSELSEEEQKEIKEAEEKLVRTILKYVEEAAK" readout="apparent Kd (screen)" recorded_value=3
binder="K71N (designed binder) SMEEEVEKAAKEYEKKKKEAIEKHLEKLKAKDKEAAERFLKELEEAAKEYAKDEAKTMSEEEAKRRAKKYNEKVLLSELSEEEQKEIKEAEEKLVRTILKYVEEAAK" readout="apparent Kd (screen)" recorded_value=0.446
binder="E72Y (designed binder) SMEEEVEKAAKEYEKKKKEAIEKHLEKLKAKDKEAAERFLKELEEAAKEYAKDEAKTMSEEEAKRRAKKYKYKVLLSELSEEEQKEIKEAEEKLVRTILKYVEEAAK" readout="apparent Kd (screen)" recorded_value=1.4
binder="Y13P (designed binder) SMEEEVEKAAKEPEKKKKEAIEKHLEKLKAKDKEAAERFLKELEEAAKEYAKDEAKTMSEEEAKRRAKKYKEKVLLSELSEEEQKEIKEAEEKLVRTILKYVEEAAK" readout="apparent Kd (screen)" recorded_value=13.8
binder="S80M (designed binder) SMEEEVEKAAKEYEKKKKEAIEKHLEKLKAKDKEAAERFLKELEEAAKEYAKDEAKTMSEEEAKRRAKKYKEKVLLSELMEEEQKEIKEAEEKLVRTILKYVEEAAK" readout="apparent Kd (screen)" recorded_value=1.16
binder="K52C (designed binder) SMEEEVEKAAKEYEKKKKEAIEKHLEKLKAKDKEAAERFLKELEEAAKEYACDEAKTMSEEEAKRRAKKYKEKVLLSELSEEEQKEIKEAEEKLVRTILKYVEEAAK" readout="apparent Kd (screen)" recorded_value=1.27
binder="K52A (designed binder) SMEEEVEKAAKEYEKKKKEAIEKHLEKLKAKDKEAAERFLKELEEAAKEYAADEAKTMSEEEAKRRAKKYKEKVLLSELSEEEQKEIKEAEEKLVRTILKYVEEAAK" readout="apparent Kd (screen)" recorded_value=0.49
binder="K27Y (designed binder) SMEEEVEKAAKEYEKKKKEAIEKHLEYLKAKDKEAAERFLKELEEAAKEYAKDEAKTMSEEEAKRRAKKYKEKVLLSELSEEEQKEIKEAEEKLVRTILKYVEEAAK" readout="apparent Kd (screen)" recorded_value=0.593
